Origin of measurements: PubChem BioAssay (NCI)

Tested on: M14 melanoma
Assay: NCI tumour cell line growth inhibition, 48 h
Measurement Kind: TGI

> print(dat)
                                   compound       val
1  COc1ccc(C2c3cc4c(cc3OC(N3CCOCC3)C2C)OCO4)cc1OC (centres undefined)   52.3 µM
2  O=C(O)c1c2c(c(O)c3c1CN(C1CCCCC1)CO3)OCN(C1CCCCC1)C2  > 100 µM
3  Cc1ccccc1NC(=O)C(=O)C(C1OC(=O)c2ccccc21)[N+](=O)[O-] (centres undefined)  > 100 µM
4  C=C(C)[C@@H]1CC[C@]2(C(=O)OC)CC[C@]3(C)[C@H](CC[C@@H]4[C@@](C)(CCc5nn[nH]n5)[C@H](C(=C)C)CC[C@]43C)[C@@H]12  > 100 µM
5  CCOc1ccc2c(c1)[n+]([O-])c(-c1ccccc1)c(N)[n+]2[O-]  > 100 µM
6  O=C(CSc1nc2ccccc2c(=O)n1-c1ccccc1)N=Nc1c(O)[nH]c2ccc(Br)cc12   6.87 µM
7  CCOc1cc(/C=C/C(=O)CC(=O)/C=C/c2ccc(OC(=O)CNc3nc4ccc(OC)cc4s3)c(OCC)c2)ccc1OC(=O)CNc1nc2ccc(OC)cc2s1   22.5 µM
8     COc1ccc(Nc2nc3ccccc3nc2-c2cccs2)cc1OC   > 10 µM
9  CSC(=Nc1ccc([N+](=O)[O-])cc1C#N)NC(=O)c1ccccc1  > 100 µM

----------
Below, each entry is listed with its recorded TGI.
Test system: SF-295 CNS
Assay: NCI tumour cell line growth inhibition, 48 h
Measurement Kind: TGI

> print(dat)
                                   compound  study.target        val
1  COC1C(OC(=O)/C=C/C=C/C=C/C=C/C(=O)O)CCC2(CO2)C1C1(C)OC1CC=C(C)C (stereo not given)    SF-295 CNS  > 96.8 µM
2  O=c1c(-c2cccc3ccccc23)c(-c2cccc3ccccc23)c1=O    SF-295 CNS    2.82 µM
3  CC1=C[C@H](C[C@]2(C)c3c(c4c(C)cccc4oc3=O)O[C@@H]2C)OC1=O    SF-295 CNS   > 100 µM
4     COc1ccc(-c2cc(=O)c3c(C)ccnc3[nH]2)cc1    SF-295 CNS   > 100 µM
5  CN1CCN(c2cc(F)c(NC3=C(Cl)C(=O)c4ncccc4C3=O)c(F)c2)CC1    SF-295 CNS    3.23 µM

----------
System: NCI-H460 lung
Experiment: NCI tumour cell line growth inhibition, 48 h

Compound	Inequality Symbol	TGI / µM
CSC(=Nc1ccc([N+](=O)[O-])cc1C#N)NC(=O)c1ccccc1	>	100
CCOC(=O)N1CCC2(CC1)C[C@](Sc1ccccc1)(C(C)=O)[C@H](C)O2	>	100
Cc1cc(NC(=O)NCCCOc2ccc(N3C(N)=NC(N)=NC3(C)C)cc2Cl)ccc1S(=O)(=O)F	=	14.7
Cc1ccc(S(=O)(=O)N(CC(O)COc2ccccc2)c2c(F)c(F)c(F)c(F)c2F)cc1 (stereo not given)	=	30.3
COc1cccc2c1C(=O)c1c(O)c3c(c(O)c1C2=O)C[C@@](O)(/C(C)=N/NC(=O)c1cccc([N+](=O)[O-])c1)C[C@@H]3OC1CC(N)C(O)C(C)O1 (stereo not given in full)	=	12.9

----------
Below, each entry is listed with its recorded TGI.
Test system: HS 578T breast
Assay: NCI tumour cell line growth inhibition, 48 h
Measurement Kind: TGI

> print(dat)
                                   compound        val
1  COC(=O)c1sc2nc(Nc3ccccc3)c(=Nc3ccccc3)sc2c1C   > 100 µM
2  CC(=O)Nc1ccc(CC[C@H]2CCC/C=C/[C@@H]3C[C@H](O)C[C@H]3[C@H](O)/C=C/C(=O)O2)cc1  > 93.7 µM
3  Cc1cc[c]([Sb]2[O]C(CO)C(C(O)C(O)C(=O)O)[O]2)cc1 (centres undefined)   > 100 µM
4  CCCCCCc1cc2cc(C(=O)Nc3nc(C45CC6CC(CC(C6)C4)C5)cs3)c(=O)oc2cc1O    46.9 µM
5  Cc1ccc(N=NC(=Nc2ccc(F)cc2)c2ccc(N(CCC#N)CCC#N)cc2)cc1   > 100 µM
6  O=C(Nc1ccc(Nc2ccc3c(c2)C(=O)c2ccccc2C3=O)c2c1C(=O)c1ccccc1C2=O)c1ccccc1  > 91.9 µM
7  CCN1CC2=C(OC(N)=C(C#N)C2c2ccc(Cl)cc2)/C(=C/c2ccc(Cl)cc2)C1 (centres undefined)   > 100 µM
8          O=c1[nH]nc(-c2ccc3ccccc3c2)[nH]1    24.2 µM
9     Nc1nc(N)c2cc(-c3cc4ccccc4[nH]3)ccc2n1   > 100 µM

----------
System: NCI-H522 lung
Experiment: NCI tumour cell line growth inhibition, 48 h; in the data active means GI50 below about 0.43 µM; inactive means the rest
Labels: 1 (yes) (active), 0 (no) (inactive)

> print(dat)
                                    compound  category.label
 1  CCN(Cc1ccccc1)c1ccc(/C=C2\COc3ccccc3C2=O)cc1          0 (no)
 2  Nc1nc(N)c2cc(S(=O)(=O)c3cccc(C(F)(F)F)c3)ccc2n1          0 (no)
 3  Cc1cc[c]([Sb]2[O]C(CO)C(C(O)C(O)C(=O)O)[O]2)cc1 (stereo unspecified)          0 (no)
 4  [N-]=[N+]=NC1C(Cl)C(=O)NC(=O)N1[C@H]1C[C@H](O)[C@@H](CO)O1 (stereo partly specified)          0 (no)
 5  CCCCCCCCCCCC(c1ccccc1)[N+](C)(C)C (stereo unspecified)         1 (yes)
 6  [Cu].c1ccc2c(c1)C1=NC2=NC2=NC(=NC3=NC(=NC4=NC(=N1)c1ccccc14)c1ccccc13)c1ccccc12          0 (no)
 7  COc1cc(-c2csc(NC(=O)Nc3ccc(Cl)cc3)n2)cc(OC)c1OC          0 (no)
 8  Clc1ccc2c(NCCCCNc3nc(N4CCOCC4)nc4ccccc34)ccnc2c1          0 (no)
 9  COc1ccc2c(c1[N+](=O)[O-])CC[C@@H]1[C@@H]2CC[C@]2(C)C(=O)CC[C@@H]12          0 (no)
10  CCn1c(-c2nonc2N)nc2cnc(Oc3cccc(NC(=O)c4ccc(OCCN5CCOCC5)cc4)c3)cc21          0 (no)
11  Cc1cc(NC(=O)NCCCOc2ccc(N3C(N)=NC(N)=NC3(C)C)cc2Cl)ccc1S(=O)(=O)F          0 (no)

----------
System: UACC-62 melanoma
Assay: NCI tumour cell line growth inhibition, 48 h
Below, each entry is listed with its recorded TGI.
Measurement Kind: TGI

> print(dat)
                                    molecule        val
 1  O=C(Nc1ccc(Cl)cc1)c1cc(S(=O)(=O)Nc2nc3ncccc3[nH]2)c(SSc2cc(Cl)c(C(=O)Nc3ccc(Cl)cc3)cc2S(=O)(=O)Nc2nc3ncccc3[nH]2)cc1Cl   > 100 µM
 2  O=S(=O)(O)c1cc(O)c(N=NC2S(=O)(=O)OCCOS2(=O)=O)c2ccccc12   > 100 µM
 3  CCN(Cc1ccccc1)c1ccc(/C=C2\COc3ccccc3C2=O)cc1  > 1000 µM
 4  O=[N+]([O-])C(/C(Cl)=C(/Cl)N1CCOCC1)=C1\Nc2ccccc2O1   > 100 µM
 5  O=c1cc(-c2cccc(Cl)c2)[nH]c2cc3c(cc12)OCO3   0.556 µM
 6  O=[N+]([O-])C1=Cc2c(O)ccc(O)c2C2OC=CC12 (stereo unspecified)    15.9 µM
 7  COc1ccc(CC(C)NCC(O)c2ccc(O)c(NC=O)c2)cc1 (stereo unspecified)   > 100 µM
 8  O=C(CSc1nc2ccccc2c(=O)n1-c1ccccc1)N=Nc1c(O)[nH]c2ccc(Br)cc12    25.9 µM
 9  CC1(N2CCOCC2)CC2C(=[N+]1[O-])CCC/C2=N/O (stereo unspecified)   > 100 µM
10  O=C(Nc1ccccc1/C=C/c1n[nH]c2ccccc12)c1ccccc1      13 µM
11     COc1ccc(-c2cc(=O)c3c(C)ccnc3[nH]2)cc1    32.6 µM
12  CN(C)N1C(=C(C#N)C#N)C(c2ccccc2)CC1C#N (stereo unspecified)   > 100 µM
13  c1ccc(CCCN2C3CCC2CN(CCOC(c2ccccc2)c2ccccc2)C3)cc1    25.5 µM
14  O=C1O/C(=C(\Br)c2ccc([N+](=O)[O-])cc2)c2ccccc21   > 100 µM
15            CN(c1ccccc1)c1nc(=[N+](C)C)ss1   > 100 µM
16  CCN(CC)CCN1C(=O)C2C3C(C)=CC(OC(C)=O)(CC3C)C2C1=O (stereo unspecified)   > 100 µM
17  CSC(=Nc1ccc([N+](=O)[O-])cc1C#N)NC(=O)c1ccccc1   > 100 µM
18  CCOc1ccc2c(c1)[n+]([O-])c(-c1ccccc1)c(N)[n+]2[O-]   > 100 µM
19  COc1cc2c(cc1OCCCCCOc1ccc(-c3nc4ccccc4s3)cc1)N=C[C@@H]1CCCN1C2=O    7.93 µM
20  O=NN(CC1(O)OCC(O)C(O)C1O)C(Cc1c[nH]c2ccccc12)C(=O)O (stereo unspecified)   > 100 µM
21  CN(C(=O)Cc1cc(Cl)c(Cl)cc1NC(=O)CCCN)[C@H]1CCCC[C@@H]1N1CCCC1    40.4 µM
